- Assay system: ENPP-1, MDA-MB-231 cells (Homo sapiens, UniProt P22413)
- Sequence (P22413 1-925): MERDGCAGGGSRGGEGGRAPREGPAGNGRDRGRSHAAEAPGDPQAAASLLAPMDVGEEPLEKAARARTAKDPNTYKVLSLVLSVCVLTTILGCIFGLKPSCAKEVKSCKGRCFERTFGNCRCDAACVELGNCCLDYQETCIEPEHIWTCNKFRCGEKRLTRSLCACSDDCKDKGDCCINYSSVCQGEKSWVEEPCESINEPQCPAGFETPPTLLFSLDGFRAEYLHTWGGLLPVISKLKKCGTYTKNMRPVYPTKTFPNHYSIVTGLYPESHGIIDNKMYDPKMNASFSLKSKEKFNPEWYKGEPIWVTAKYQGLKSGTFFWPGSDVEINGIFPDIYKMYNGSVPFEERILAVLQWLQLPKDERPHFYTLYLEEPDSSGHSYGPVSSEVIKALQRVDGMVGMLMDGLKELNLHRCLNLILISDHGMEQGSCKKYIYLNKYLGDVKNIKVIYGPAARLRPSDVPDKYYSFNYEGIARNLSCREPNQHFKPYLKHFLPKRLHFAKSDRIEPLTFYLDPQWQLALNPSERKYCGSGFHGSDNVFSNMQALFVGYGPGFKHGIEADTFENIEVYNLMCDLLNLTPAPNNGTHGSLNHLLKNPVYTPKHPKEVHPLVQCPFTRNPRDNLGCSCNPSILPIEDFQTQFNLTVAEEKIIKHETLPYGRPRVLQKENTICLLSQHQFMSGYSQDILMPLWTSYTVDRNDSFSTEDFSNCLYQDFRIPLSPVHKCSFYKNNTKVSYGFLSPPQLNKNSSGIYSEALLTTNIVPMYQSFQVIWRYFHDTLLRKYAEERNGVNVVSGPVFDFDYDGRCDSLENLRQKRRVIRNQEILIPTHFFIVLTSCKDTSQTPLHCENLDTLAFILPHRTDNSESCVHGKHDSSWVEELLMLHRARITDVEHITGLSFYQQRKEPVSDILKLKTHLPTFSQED
- Assay details: cell-based
- Conditions used: MDA-MB-231, read-out: % Inhibition (at 20 μM)
Use rule met when the recorded inhibition at 20 µM is no lower than 70%; use rule not met when it is lower.

Answered cases to consult:
Compound: COc1ccc2c(ncc3nc(C)n(Cc4cc(F)c(P(=O)(O)O)cc4F)c32)n1
Class: rule met
--
Compound: COc1ccc2c(n1)nc(C)c1nc(C)n(Cc3ncc(S(N)(=O)=O)cn3)c12 [Compound 91a]
Class: rule not met
--
Compound: CCC(=O)NS(=O)(=O)c1cc(F)c(Cn2c(=O)[nH]c3cnc4nc(OC)ccc4c32)c(F)c1
Class: rule not met
--
Compound: CCCC(=O)NS(=O)(=O)c1cc(F)c(Cn2c(=O)[nH]c3cnc4nc(OC)ccc4c32)c(F)c1
Class: rule not met
--
Compound: COc1ccc2c(ncc3[nH]c(=O)n(Cc4ccc(S(N)(=O)=O)c(F)c4)c32)n1
Class: rule not met
--
Compound: COc1ccc2c(ncc3ncn(Cc4ccc(S(N)(=O)=O)cn4)c32)n1
Class: rule met

// next entry
Qu. Evaluate COc1ccc2c(ncc3[nH]c(=O)n(CC4CC(OS(N)(=O)=O)C4)c32)n1 (centres unmarked) : inhibition at 20 µM at minimum 70%?
Ans. rule met

---

- Assay system: ENPP-1, Saos-2 cells (Homo sapiens, UniProt P22413)
- Construct: ENPP-1 were mainly expressed on the surface of cell membrane; endogenous in cells
- Assay details: Cellular enzymatic assay of ENPP-1 inhibitors using TMP-pNP as substrate, Saos-2 cells
Below is a list of entries, each paired with its recorded IC50 value.
Report the figure in µM without appending any unit label.

Solved entries (count: 3):
Molecule: COc1cc2ncc3ncn(Cc4ccc(S(N)(=O)=O)cn4)c3c2cc1OC
Readout label: IC50
Recorded value: 1
--
Molecule: COc1ccc2ncc3ncn(Cc4ccc(S(N)(=O)=O)cc4)c3c2c1
Readout label: IC50
Recorded value: 2
--
Molecule: COc1cc2ncc3ncn([C@H](C)c4ccc(S(N)(=O)=O)cc4)c3c2cc1OC [Compound 11a]
Readout label: IC50
Recorded value: 1.2

Qu. Param readout= IC50; system= ENPP-1, Saos-2 cells (Homo sapiens, UniProt P22413); entry= COc1ccc2c(c1)ncc1[nH]c(=O)n(Cc3ccc(S(N)(=O)=O)cc3)c12 ; returns value.
Ans. 5.6
